Origin of values: PubChem BioAssay (NCI)

# Test system: OVCAR-5 ovarian
# run-description: NCI tumour cell line growth inhibition, 48 h
readout-kind: TGI (µM)
Kindly answer with a numeric value in µM, unit omitted.

Consider the reported TGI for these compounds:
compound	readout-kind	units-label	observed-measurement
N#Cc1cnn(C(=O)c2nn(-c3ccc(Cl)cc3)cc2O)c1N	TGI	µM	21.6
CCCCCn1sc(=O)n(Cc2ccc(CNC(=O)C(C)c3ccc(CC(C)C)cc3)cc2)c1=O (stereo not given)	TGI	µM	3.19
COc1ccc(Cl)cc1NC(=O)O/N=C(\Cl)C(C)C	TGI	µM	34.2
CC(C)C1OC(=O)C(Cc2ccccc2)N(C)C(=O)C(C(C)C)OC(=O)C(Cc2ccccc2)N(C)C(=O)C(C(C)C)OC(=O)C(Cc2ccccc2)N(C)C1=O (stereo not given)	TGI	µM	2.44

--- query ---
Can you look up the measured TGI of COc1ccc2c(Cl)cc(NC(=S)Nc3ccccc3)nc2c1 for me?
99.6
